# measurementTarget: CaBzz1-D2
# test: SPOT peptide array binding signal intensity (averaged, normalized) (arbitrary units (background-subtracted, floor 0; scale differs between SH3 domains)); higher = stronger binding of the SH3 domain to the peptide
quantityMeasured: SPOT peptide array binding signal intensity

Solved entries (count: 10):
binder: ITHRLRISIPGITGR
measuredResult: 226
--
binder: NPLPKEPRLPKRKVA
measuredResult: 95.5
--
binder: NGRRRPKFRVQLSGN
measuredResult: 114
--
binder: EVTPKVPERPSRRKT
measuredResult: 406
--
binder: AIPPPVPNRPGGTTN
measuredResult: 79
--
binder: DKSRPPRPPPKPLHL
measuredResult: 578
--
binder: KTKQQKPAIPQKKSF
measuredResult: 584
--
binder: RRTRLRPPTPLSQLL
measuredResult: 76.8
--
binder: VATSTSPKLPPRGKQ
measuredResult: 96.5
--
binder: VPPVPLPFGIPPFPM
measuredResult: ≤ 0

Input: # input binder: RFKRHRLEFPFNESE ; wanted: its SPOT peptide array binding signal intensity
Output: 34.8
